- Tested on: human gastric cancer cell N87
- procedure_details: Cytotoxicity test of conjugate LDC13B
- Type: cell-based
- measurement_setup: N87, incubated 15-30 min, then 2-3 days
Square brackets hold non-standard residues; d marks the D form. Peptide text beside a SMILES is read from it. * marks the point of attachment. Dolaproine = CO[C@@H]([C@@H]1CCCN1)[C@@H](C)C(=O)O; Dil = CC[C@H](C)[C@H](NC)[C@@H](CC(=O)O)OC; X1 = C[C@@H](N*)[C@@H](O)c1ccccc1; NMeV = CN[C@H](C(=O)O)C(C)C

{"compound": "CC[C@H](C)[C@@H]([C@@H](CC(=O)N1CCC[C@H]1[C@H](OC)[C@@H](C)C(=O)N[C@H](C)[C@@H](O)c1ccccc1)OC)N(C)C(=O)[C@@H](NC(=O)[C@@H](NC)C(C)C)C(C)C [MMAE] (H-[NMeV]V[Dil][Dolaproine]-X1)", "IC50": "3.83 nM"}
